Provenance of the data: patent US4256729A

- procedure text: in vivo
- test conditions: rat, in vivo
readout kind: LD50 at 48 h (mg/kg)
Express your answer in mg/kg, writing the number without its unit.

Consider O=C(Nc1c(I)c(C(=O)NCC(O)CO)c(I)c(C(=O)NCC(O)CO)c1I)C(=O)[C@@H](O)[C@H](O)[C@@H](O)CO (stereo partly shown) [IX] . Its measured LD50 at 48 h is 1720
